- Test system: Monoclonal antibody (mAb)
- Test: Binding affinity against human monoclonal antibody (mAb)-5C2
Listing of recorded IC50 ratio by entry.
Assay readout: IC50 ratio

>  <Structure smiles string>
C[C@H]1O[C@@H](O[C@H]2[C@@H](O)C[C@H](O[C@H]3CC[C@@]4(C)[C@H](CC[C@@H]5[C@@H]4CC[C@]4(C)[C@@H](C6=CC(=O)OC6)CC[C@]54O)C3)O[C@@H]2C)C[C@H](O)[C@@H]1O

>  <Observed value>
14

$$$$
>  <Structure smiles string>
C[C@]12CC[C@H]3[C@@H](CCC4=CC(=O)CC[C@@]43C)[C@@H]1CC[C@@H]2O

>  <Observed value>
120

$$$$
>  <Structure smiles string>
C[C@H]1O[C@@H](O[C@H]2[C@@H](O)C[C@H](O[C@H]3[C@@H](O)C[C@H](O[C@H]4CC[C@@]5(C)[C@H](CC[C@@H]6[C@@H]5C[C@@H](O)[C@]5(C)[C@@H](C7=CC(=O)OC7)CC[C@]65O)C4)O[C@@H]3C)O[C@@H]2C)C[C@H](O)[C@@H]1O

>  <Observed value>
1

$$$$
>  <Structure smiles string>
C[C@]12C=CC(=O)C=C1CC[C@@H]1[C@@H]2C(=O)C[C@@]2(C)[C@H]1CC[C@]2(O)C(=O)CO

>  <Observed value>
3400

$$$$
>  <Structure smiles string>
CC(=O)O[C@H]1CC[C@@]2(C)[C@H](CC[C@@H]3[C@@H]2C[C@@H](O)[C@]2(C)[C@@H](C4=CC(=O)OC4)CC[C@]32O)C1

>  <Observed value>
140

$$$$

The reported numbers originate from ChEMBL document CHEMBL1135516.
